All figures here come from patent US20210121406A1.

Assignment: determine reported IC50 for the given binders.
# tested.target: T1, biotinylated His-Avi hu TSLP (human, UniProt Q969D9 29-159, biotinylated (site not stated))
# T1 construct: also called biotinylated TSLP; not shown: His-Avi tag
# test: HTRF competition; competitor DyLight-labelled tezepelumab
Quick note: give the figure in nM, leave out the unit.

Task item: Return IC50 (reported value) for this binder: Fab3 (Fab, V domains shown, Only the changed VL is printed) VH: QMQLVESGGGVVQPGRSLRLSCAASGFTFRTYGMHWVRQAPGKGLEWVAVIWYDGSNKHYADSVKGRFTITRDNSKNTLNLQMNSLRAEDTAVYYCARAPQWELVHEAFDIWGQGTMVTVSS VL: SYVLTQPPSVSVAPGQTARITCGGNNVGSKSVHWYQQKPGQAPVLVVYDDSDRPSWIPERFSGSNSGNTATLTISRGEAGDEADYYCQVWDSSSDHVVFGGGTKLTVL
Reply: 0.24

Task item: Return IC50 (reported value) for this binder: Fab8 (Fab, V domains shown, Only the changed VL is printed) VH: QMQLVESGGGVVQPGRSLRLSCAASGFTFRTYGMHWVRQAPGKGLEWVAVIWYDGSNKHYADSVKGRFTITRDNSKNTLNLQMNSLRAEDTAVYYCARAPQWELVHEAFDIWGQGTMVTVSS VL: SYVLTQPPSVSVAPGQTARITCGGNNLGSKSVHWYQQKPGQAPVLVVYDDSDRPSWIPERFSGSNSGNTATLTISRGEAGDEADYYCQVWDTSSDHVVFGGGTKLTVL
Reply: 0.29

Task item: Return IC50 (reported value) for this binder: Fab2 (Fab, V domains shown) VH: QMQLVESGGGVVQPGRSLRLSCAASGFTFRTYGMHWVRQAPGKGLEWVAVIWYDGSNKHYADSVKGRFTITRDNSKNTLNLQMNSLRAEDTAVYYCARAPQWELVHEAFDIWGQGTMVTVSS VL: SYVLTQPPSVSVAPGQTARITCGGNNIGSKSVHWYQQKPGQAPVLVVYDDSDRPSWIPERFSGSNSGNTATLTISRGEAGDEADYYCQVWDSSSDHVVFGGGTKLTVL
Reply: 0.29
